Numbers sourced from ChEMBL document CHEMBL1201862.

Biological target: Heat shock factor protein 1 (Mus musculus)
Sequence (P38532 whole entry): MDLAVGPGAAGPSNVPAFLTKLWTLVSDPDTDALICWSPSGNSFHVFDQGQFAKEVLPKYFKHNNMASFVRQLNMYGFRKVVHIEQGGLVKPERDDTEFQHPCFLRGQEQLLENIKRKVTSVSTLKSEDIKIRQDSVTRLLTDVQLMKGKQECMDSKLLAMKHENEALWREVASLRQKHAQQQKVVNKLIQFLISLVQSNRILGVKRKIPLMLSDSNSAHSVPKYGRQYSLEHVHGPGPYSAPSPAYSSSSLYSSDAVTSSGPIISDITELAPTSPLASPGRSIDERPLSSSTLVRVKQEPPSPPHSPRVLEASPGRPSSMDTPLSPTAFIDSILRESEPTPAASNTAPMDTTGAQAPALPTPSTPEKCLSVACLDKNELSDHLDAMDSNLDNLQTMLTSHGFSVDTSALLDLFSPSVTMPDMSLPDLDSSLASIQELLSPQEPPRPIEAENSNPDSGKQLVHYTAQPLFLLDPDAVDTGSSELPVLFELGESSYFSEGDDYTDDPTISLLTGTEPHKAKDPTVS
Assay: HSF1 potentiators in luciferase reporter cells, confirmation, cell-based, NIH3T3, luminescence, dose retest (AID 435004);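 further: stress induced by proteasome inhibitor MG132 added 30 min after compound; luciferase reporter driven by HSF1 response element in NIH3T3 cells; actives raise luminescence as potentiators of the MG132 stress response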
Assay type: functional
Activity calls are given as the source filed them. No stated cut-off is given here; in the data, actives have a measured EC50 and inactives only a lower limit.
QUANTITY_MEASURED: EC50

See these solved cases before continuing.
[[record]]
compound = "O=c1[nH]c2c(s1)C=Nc1ccccc1N2"
quantity_measured = "EC50"
observed_result = "> 260 µM (inactive)"

[[record]]
compound = "O=C(NC1CCSc2ccccc21)c1ccccc1Cl (stereo not given)"
quantity_measured = "EC50"
observed_result = "> 260 µM (inactive)"

[[record]]
compound = "CCOC(=O)c1cnc2ccc(C)cc2c1Sc1ccc(F)cc1"
quantity_measured = "EC50"
observed_result = "11.2 µM (active)"


For the compound shown here, `COc1ccc(N/C=C2\C(=O)CCc3c2oc2cc(Cl)c(O)c(Cl)c32)cc1` , give the reported EC50.
> 260 µM (inactive)

Please give the result for `CN1CCN(C(=O)/C(=C/c2cccnc2)NC(=O)c2cccc(Br)c2)CC1` too.
> 260 µM (inactive)

Please give the result for CCN1C(=O)CC(N2CCN(c3ccc(C(=O)c4ccccc4)cc3)CC2)C1=O (stereo not given) too.
> 260 µM (inactive)

Please give the result for `COC(=O)c1cccc(Cn2c(Cl)c(/C=N/Nc3ccccc3C)sc2=O)c1` too.
61.2 µM (active)

Please give the result for `CCOc1ccc(NC(=S)N(Cc2ccc(Cl)cc2)Cc2ccco2)cc1` too.
> 260 µM (inactive)

Please give the result for `Cc1cccc(C(C)C)c1NC(=O)COC(=O)c1cccc(S(=O)(=O)N2CCc3ccccc3C2)c1` too.
> 260 µM (inactive)

Please give the result for `Nc1nnc(CSCc2ccccc2Cl)s1` too.
> 260 µM (inactive)

Please give the result for CCOc1ccc(N2C(=O)/C(=C\c3ccc(O)c(OC)c3)S(=O)(=O)C2c2cccc([N+](=O)[O-])c2)cc1 (stereo not given) too.
8.52 µM (active)

Please give the result for `COc1ccccc1NC(=O)CN1CCN(CC(=O)Nc2ccccc2Cl)CC1` too.
> 260 µM (inactive)

Please give the result for CC1CC(C)CN(C(=O)CCS(=O)(=O)c2ccc3c(c2)NC(=O)CS3)C1 (stereo not given) too.
> 260 µM (inactive)

Please give the result for `CN(C)CCCn1c(N)c(C#N)c2nc(C#N)c(C#N)nc21` too.
58.3 µM (active)

Please give the result for CCn1cc([N+](=O)[O-])c(C(=O)N2N=C(c3ccc(Cl)c(Cl)c3)CC2c2ccccc2O)n1 (stereo not given) too.
> 260 µM (inactive)

Please give the result for `Cn1cc(C=O)c(-c2ccc3c(c2)OCCCO3)n1` too.
> 260 µM (inactive)

Please give the result for `COc1ccc(/C=c2\s/c(=C\C(=O)C(C)(C)C)[nH]c2=O)cc1O` too.
41.8 µM (active)

Please give the result for CCCC(=O)NC(c1ccc(N(C)C)cc1)c1ccc2cccnc2c1O (stereo not given) too.
> 260 µM (inactive)

Please give the result for `N=c1c(S(=O)(=O)c2ccc(Cl)cc2)cc2c(=O)n3ccccc3nc2n1Cc1ccco1` too.
> 260 µM (inactive)

Please give the result for `O=C(Nc1ccccc1)N1CCCN(c2ccc(C(F)(F)F)cc2[N+](=O)[O-])CC1` too.
> 260 µM (inactive)
